Tested on: MRSA ATCC 33591
measurement-protocol: microbroth antibiotic susceptibility testing, MRSA
Type: cell-based, methicillin-resistant Staphylococcus aureus
stated-conditions: Staphylococcus aureus; triplicate, averaged; 22 h at 37°C; read-out: MRSA IC50
value-kind: IC50 (µg/mL)

compound: Cc1cc(=O)c(O)cc2c1C[C@H]1CC(C)(C)/C=C/C[C@@]3(C)Oc4cc(O)cc(C)c4C[C@@H]3C[C@H](O)[C@]1(C)O2 [Epolone A, epolone A]
IC50 / µg/mL: 48

I = C/C1=C\C(C)(C)/C=C/C[C@@]2(C)Oc3cc(O)c(=O)cc(C)c3CC2C[C@@H](O)C1 (some centres unmarked) [Epolone B, epolone B]
II = COC1=C(Cl)C(C)(O)c2c(oc(=O)c3c(O)cc(OC)cc23)C1=O (centres unmarked) [TMC-264]
Input: Just curious, which one has the larger IC50 reading, I or II ? Use the label to indicate which entry you chose.
Output: I

###

System: VRE EF379
measurement-protocol: microbroth antibiotic susceptibility testing, VRE
Format: cell-based, vancomycin-resistant Enterococcus faecium
stated-conditions: Enterococcus, VRE; triplicate, averaged; 22 h at 37°C; read-out: VRE IC50
value-kind: IC50

Some solved entries appear below for comparison.
given-smiles: Cc1cc(CO)c2c(=O)c3c(O)cccc3oc2c1
tested-on: VRE EF379
value-kind: IC50
result-value: > 128 mg/L
--
given-smiles: Cc1cc(O)c2c(c1)C(=O)c1cccc(O)c1C2=O
tested-on: VRE EF379
value-kind: IC50
result-value: > 128 mg/L

Could you now look at the following molecule, please?
Input: Item under review: "C[C@H]1CCC/C=C/[C@@H]2C[C@H](O)C[C@H]2[C@H](O)/C=C/C(=O)O1" . Reported IC50?
Output: > 128 mg/L

###

Here, each record is paired with measured IC50 data.
Tested on: adult human epidermal keratinocytes (HEKa)
measurement-protocol: cytotoxicity assay (Alamar blue), keratinocytes
Type: cell-based
stated-conditions: Homo sapiens; HeKa cells, 24 h; read-out: Keratinocyte IC50

compound: Cc1cc(O)c2c(c1)C(C1c3cccc(O)c3C(=O)c3c(O)cc(C)cc31)c1cccc(O)c1C2=O (stereo not drawn)
value-kind: IC50
result-value: > 64 µg/mL
--
compound: Cc1cc(O)c2c(c1)C(=O)c1cccc(O)c1C2=O
value-kind: IC50
result-value: > 64 µg/mL

Input: Item under review: CC(C)C12SSSSC3(C(=O)N1C)C1OC45C(=O)N(C)C(CO)C(=O)N4C4Nc6ccccc6C4(C5O)C14c1ccccc1NC4N3C2=O (stereo not drawn) . Reported IC50?
Output: > 0.5 µg/mL

###

System: MRSA ATCC 33591
measurement-protocol: microbroth antibiotic susceptibility testing, MRSA
Type: cell-based, methicillin-resistant Staphylococcus aureus
stated-conditions: Staphylococcus aureus; triplicate, averaged; 22 h at 37°C; read-out: MRSA IC50
Experimental: All microbroth antibiotic susceptibility testing was carried out in triplicate in 96-well plates in accordance with Clinical Laboratory Standards Institute testing standards (NCCLS, [2003]) using the following pathogens: MRSA ATCC 33591 (MRSA), S. warneri ATCC 17917, VRE EF379 (VRE), Pseudomonas aeruginosa ATCC 14210, Proteus vulgaris ATCC 12454, and Candida albicans ATCC 14035. […]
value-kind: IC50

compound: C[C@H]1CCC/C=C/[C@@H]2C[C@H](O)C[C@H]2[C@H](O)/C=C/C(=O)O1
result-value: > 128 µg/mL
//
compound: Cc1cc(O)c2c(c1)C(=O)c1cccc(O)c1C2=O
result-value: > 128 µg/mL
//
compound: Cc1cc(=O)c(O)cc2c1C[C@H]1CC(C)(C)/C=C/C[C@@]3(C)Oc4cc(O)c(=O)cc(C)c4C[C@@H]3C[C@H](O)[C@]1(C)O2
result-value: 12 µg/mL
//
compound: Cc1cc(CO)c2c(=O)c3c(O)cccc3oc2c1
result-value: > 128 µg/mL

Could you now look at the following compound, please?
Input: Item under review: Cc1cc(O)c2c(c1)C(C1c3cccc(O)c3C(=O)c3c(O)cc(C)cc31)c1cccc(O)c1C2=O (centres unmarked) . Reported IC50?
Output: > 128 µg/mL
